target: GDP-bound KRAS wild-type protein (Homo sapiens); assay: Binding to KRAS by surface plasmon resonance (SPR), dissociation constant KD; details: Single Cycle Kinetics, 1:1 binding model
Sequence (P01116 1-188 isoform P01116-2): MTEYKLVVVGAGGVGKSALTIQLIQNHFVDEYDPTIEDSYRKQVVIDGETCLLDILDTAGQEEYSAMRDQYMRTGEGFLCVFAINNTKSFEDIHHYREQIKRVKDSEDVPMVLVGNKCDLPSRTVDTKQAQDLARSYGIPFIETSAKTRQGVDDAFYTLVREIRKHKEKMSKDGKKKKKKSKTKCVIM
The entries below come with measured pKd values attached.
Scale: negative log10 of molar concentration, which is what pKd denotes.

Solved cases (2 shown):
CCO[C@@H]1C[C@H]2C(=O)NC3(CCCC3)C(=O)N(C)[C@@H](C3CCCC3)C(=O)N(C)[C@H](C(=O)N3CCOCC3)CC(=O)N(C)[C@@H](CC)C(=O)N[C@@H]([C@@H](C)CC)C(=O)N(C)CC(=O)N(C)[C@H]3CC[C@@H](C)CN(C3=O)[C@@H](Cc3ccc(C(F)(F)F)cc3)C(=O)N(C)CC(=O)N[C@@H](CCc3ccc(C(F)(F)F)c(Cl)c3)C(=O)N2C1    10.06
CCC[C@H]1C(=O)N[C@@H]([C@@H](C)CC)C(=O)N(C)CC(=O)N(C)[C@H]2C/C=C\CCN(C2=O)[C@@H](Cc2ccc(C)cc2)C(=O)N(C)CC(=O)N[C@@H](CCc2ccc(C(F)(F)F)c(Cl)c2)C(=O)N2C[C@H](C)C[C@H]2C(=O)NC2(CC(C)(C)C2)C(=O)N(C)[C@@H](C2CCCC2)C(=O)N(C)[C@H](C(=O)N(C)C)CC(=O)N1C    9.89

Ask: Any idea what its pKd is? The compound is CC[C@H](C)[C@@H]1NC(=O)[C@H](CC)N(C)C(=O)C[C@@H](C(=O)N2CCOCC2)N(C)C(=O)[C@H](C2CCCC2)N(C)C(=O)C2(CCCC2)NC(=O)[C@@H]2CCCN2C(=O)[C@H](CCc2cc(F)c(C(F)(F)F)c(F)c2)NC(=O)CN(C)C(=O)[C@H](Cc2ccc(C(F)(F)F)cc2)N2CCCC[C@@H](C2=O)N(C)C(=O)CN(C)C1=O
Reply: 10.24
